Source: patent US20220227765A1

# assayProtocol: Human blood stability
# Type: in vitro ADME
# measurementParameters: 45 min
assayEndpoint: human blood stability % remaining

[[record]]
substancesmiles = "O=C(CCl)N1[C@@H](CC2CC2)Cc2c([nH]c3ccccc23)[C@@H]1c1ccc(NC23CC4CC(CC(C4)C2)C3)cc1"
endpointresult = "82%_45"

[[record]]
substancesmiles = "C#CC(=O)N1[C@@H](CCCC)Cc2c([nH]c3ccccc23)[C@@H]1c1ccc(C(=O)NCCOC)cc1"
endpointresult = "36%_45"

[[record]]
substancesmiles = "C#CC(=O)N1[C@@H](CCCC)Cc2c([nH]c3c(F)cc(F)cc23)[C@@H]1c1ccc(NC(=O)OCCCCC)cc1"
endpointresult = "28%_45"

[[record]]
substancesmiles = "C#CC(=O)N1[C@@H](CCCC)Cc2c([nH]c3c(F)cc(F)cc23)[C@@H]1c1ccccn1"
endpointresult = "0%_45"


====

Recorded human blood stability % remaining values for a group of compounds are listed next.
# assayProtocol: Human blood stability
# Format: in vitro ADME
# measurementParameters: 120 min
assayEndpoint: human blood stability % remaining (%_120)

[[record]]
compound = "C#CC(=O)N1[C@@H](CCCC)Cc2c([nH]c3c(F)cc(F)cc23)[C@@H]1c1ccc(NC(=O)OCCCCC)cc1 [Compound B-25]"
assayendpoint = "human blood stability % remaining"
endpointresult = 0

[[record]]
compound = "C#CC(=O)N1[C@@H](CCCC)Cc2c([nH]c3ccccc23)[C@@H]1c1ccc(C(=O)NCCOC)cc1 [Compound B-3]"
assayendpoint = "human blood stability % remaining"
endpointresult = 1.5

[[record]]
compound = "O=C(CCl)N1[C@@H](CC2CC2)Cc2c([nH]c3ccccc23)[C@@H]1c1ccc(NC23CC4CC(CC(C4)C2)C3)cc1 [Compound B-36]"
assayendpoint = "human blood stability % remaining"
endpointresult = 51

[[record]]
compound = "C#CC(=O)N1[C@@H](CCCC)Cc2c([nH]c3c(F)cc(F)cc23)[C@@H]1c1ccccn1 [Compound B-31]"
assayendpoint = "human blood stability % remaining"
endpointresult = 0


====

# assayProtocol: Rat IV pharmacokinetics (2 mg/kg)
# Type: in vivo
# measurementParameters: male, SD, plasma, read-out: Rat IV-PK AUC (0-t)
assayEndpoint: AUC(0-t) (ng·h/mL)

[[record]]
substancesmiles = "O=C(CCl)N1[C@@H](CC2CC2)Cc2c([nH]c3ccccc23)[C@@H]1c1ccc(NC23CC4CC(CC(C4)C2)C3)cc1"
assayendpoint = "AUC(0-t)"
unitinfo = "ng·h/mL"
endpointresult = 431

[[record]]
substancesmiles = "C#CC(=O)N1[C@@H](CC2CC2)Cc2c([nH]c3ccccc23)[C@@H]1c1ccc(NC23CC4CC(CC(C4)C2)C3)cc1"
assayendpoint = "AUC(0-t)"
unitinfo = "ng·h/mL"
endpointresult = 346


====

# System: SJSA-1
# assayProtocol: Cell proliferation (Alamar Blue) assay, SJSA-1
# Type: cell-based, human
# measurementParameters: Homo sapiens, SJSA-1, 24 h, Table B-3, head prints SJSB-1, 24 h, read-out: IC50 (μM) SJSB-1
assayEndpoint: IC50 (µM)

[[record]]
compound = "C#CC(=O)N1[C@@H](CCCC)Cc2c(n(C)c3c(F)cc(F)cc23)[C@@H]1c1ccc(NC(=O)OCCCCC)cc1"
targetentity = "SJSA-1"
endpointresult = 0.293

[[record]]
compound = "C#CC(=O)N1C(c2ccn(-c3ccc(F)cc3)n2)c2[nH]c3ccccc3c2C[C@@H]1CCCC (stereo partly shown)"
targetentity = "SJSA-1"
endpointresult = 0.021

[[record]]
compound = "C#CC(=O)N1[C@@H](CCCC)Cc2c([nH]c3c(F)cc(F)cc23)[C@@H]1c1ccc(C(C)(C)O)cc1"
targetentity = "SJSA-1"
endpointresult = 0.053

[[record]]
compound = "C#CC(=O)N1[C@@H](CCCC)Cc2c([nH]c3ccccc23)[C@@H]1c1ccc(C(=O)NCCn2ccnc2)cc1"
targetentity = "SJSA-1"
endpointresult = 0.294

[[record]]
compound = "C#CC(=O)N1C(CCCC)Cc2c([nH]c3ccccc23)[C@@H]1c1ccc(CNCC23CC4CC(CC(C4)C2)C3)cc1 (stereo partly shown) [Compound B-45A]"
targetentity = "SJSA-1"
endpointresult = 0.001

[[record]]
compound = "C#CC(=O)N1[C@@H](CCCC)Cc2c([nH]c3ccccc23)[C@@H]1CCCCC"
targetentity = "SJSA-1"
endpointresult = 0.17

[[record]]
compound = "C#CC(=O)N1[C@@H](CCCC)Cc2c([nH]c3ccccc23)[C@@H]1c1ccc(NC23CC4CC(CC(C4)C2)C3)cc1"
targetentity = "SJSA-1"
endpointresult = 0.006


====

# assayProtocol: Rat hepatocyte metabolic stability
# Assay type: in vitro ADME
# measurementParameters: rat hepatocytes; read-out: rat hepatocytes T1/2
Recorded half-life values for a group of molecules are listed next.
assayEndpoint: half-life

[[record]]
substancesmiles = "C#CC(=O)N1[C@@H](CC2CC2)Cc2c([nH]c3ccccc23)[C@@H]1c1ccc(NC23CC4CC(CC(C4)C2)C3)cc1"
endpointresult = "2.28 h"

[[record]]
substancesmiles = "C#CC(=O)N1[C@@H](CCCC)Cc2c([nH]c3c(F)cc(F)cc23)[C@@H]1c1ccccn1"
endpointresult = "0.267 h"

[[record]]
substancesmiles = "C#CC(=O)N1[C@@H](CCCC)Cc2c([nH]c3c(F)cc(F)cc23)[C@@H]1c1ccc(NC(=O)OCCCCC)cc1"
endpointresult = "2.52 h"

[[record]]
substancesmiles = "O=C(CCl)N1[C@@H](CC2CC2)Cc2c([nH]c3ccccc23)[C@@H]1c1ccc(NC23CC4CC(CC(C4)C2)C3)cc1"
endpointresult = "1.78 h"


====

# Test system: SJSA-1
# assayProtocol: Cell proliferation (Alamar Blue) assay, SJSA-1
# Type: cell-based, human
# measurementParameters: Homo sapiens, SJSA-1, 24 h, Table B-3, head prints SJSB-1, 24 h, read-out: IC50 (μM) SJSB-1
Recorded IC50 values for a group of molecules are listed next.
assayEndpoint: IC50 (µM)

[[record]]
molecule = "C#CC(=O)N1[C@@H](CCCC)Cc2c([nH]c3ccc(F)cc23)[C@@H]1c1ccc(C(=O)NCCOC)cc1 [Compound B-11]"
assayendpoint = "IC50"
unitinfo = "µM"
endpointresult = 0.025

[[record]]
molecule = "C#CC(=O)N1[C@@H](CCCC)Cc2c([nH]c3ccccc23)[C@@H]1c1ccc(NC23CC4CC(CC(O)(C4)C2)C3)cc1 [Compound B-44]"
assayendpoint = "IC50"
unitinfo = "µM"
endpointresult = 0.014

[[record]]
molecule = "C#CC(=O)N1[C@@H](CCCC)Cc2c([nH]c3c(F)cc(F)cc23)[C@@H]1c1cccnc1 [Compound B-30]"
assayendpoint = "IC50"
unitinfo = "µM"
endpointresult = 0.052

[[record]]
molecule = "C#CC(=O)N1[C@@H](CC)Cc2c([nH]c3c(F)cc(F)cc23)[C@@H]1c1ccc(F)cc1 [Compound B-61]"
assayendpoint = "IC50"
unitinfo = "µM"
endpointresult = 0.068


====

Recorded IC50 values for a group of compounds are listed next.
# Test system: 786-O
# assayProtocol: Cell proliferation (Alamar Blue) assay, 786-O
# Type: cell-based, human
# measurementParameters: Homo sapiens, 786-0, 24 h, Table C-3, 786-O cells
assayEndpoint: IC50 (µM)

[[record]]
substancesmiles = "C#CC(=O)N1[C@@H](CCCC)Cc2c([nH]c3c(F)cc(F)cc23)[C@@H]1CCCCCCCC"
valueoperator = "="
endpointresult = 0.07

[[record]]
substancesmiles = "C#CC(=O)N1[C@@H](CCCC)Cc2c([nH]c3c(F)cc(F)cc23)[C@@H]1CCCCCCCCCCCCCCC"
valueoperator = ">"
endpointresult = 10

[[record]]
substancesmiles = "C#CC(=O)N1[C@@H](CCCC)Cc2c([nH]c3c(F)cc(F)cc23)[C@@H]1COCCOC"
valueoperator = "="
endpointresult = 0.043

[[record]]
substancesmiles = "C#CC(=O)N1[C@@H](CCCC)Cc2cc(OC)ccc2[C@@]1(C)c1ccc(NC23CC4CC(CC(C4)C2)C3)cc1"
valueoperator = "="
endpointresult = 0.69

[[record]]
substancesmiles = "C#CC(=O)N1[C@@H](CCCC)Cc2c([nH]c3ccccc23)[C@]1(C)c1ccc(F)cc1"
valueoperator = "="
endpointresult = 0.098


====

# assayProtocol: Protein binding - free drug % (mouse)
# Format: in vitro ADME
assayEndpoint: fraction unbound

[[record]]
compound = "C#CC(=O)N1[C@@H](CCCC)Cc2c([nH]c3c(F)cc(F)cc23)[C@@H]1c1ccc(NC(=O)OCCCCC)cc1 [Compound B-25]"
endpointresult = 0.094


====

# System: SJSA-1
# assayProtocol: Cell proliferation (Alamar Blue) assay, SJSA-1
# Type: cell-based, human
# measurementParameters: Homo sapiens, SJSA-1, 24 h, Table B-3, head prints SJSB-1, 24 h, read-out: IC50 (μM) SJSB-1
Recorded IC50 values for a group of molecules are listed next.
assayEndpoint: IC50 (µM)

[[record]]
molecule = "C#CC(=O)N1[C@@H](CCCC)Cc2c([nH]c3c(F)cc(F)cc23)[C@@H]1c1nccn1C"
targetentity = "SJSA-1"
endpointresult = 0.167

[[record]]
molecule = "C#CC(=O)N1[C@@H](CCCC)Cc2c([nH]c3c(F)cc(F)cc23)[C@@H]1CCC"
targetentity = "SJSA-1"
endpointresult = 0.22

[[record]]
molecule = "C#CC(=O)N1[C@@H](CCC)Cc2c([nH]c3ccccc23)[C@@H]1c1ccc(NC23CC4CC5CC(C2)C54C3)cc1 (stereo partly shown)"
targetentity = "SJSA-1"
endpointresult = 0.0025

[[record]]
molecule = "C#CC(=O)N1[C@@H](CCCC)Cc2c([nH]c3c(F)cc(F)cc23)[C@@H]1c1ccc(N)cc1"
targetentity = "SJSA-1"
endpointresult = 0.069

[[record]]
molecule = "C#CC(=O)N1[C@@H](CCCC)Cc2c([nH]c3ccccc23)[C@@H]1c1ccc(NC2CCCC2)cc1"
targetentity = "SJSA-1"
endpointresult = 0.0715

[[record]]
molecule = "C#CC(=O)N1C(CCCC)Cc2c([nH]c3ccccc23)[C@@H]1c1ccc(C(O)CO)cc1 (stereo partly shown)"
targetentity = "SJSA-1"
endpointresult = 0.74

[[record]]
molecule = "C#CC(=O)N1[C@@H](CCCC)Cc2c(sc3ccccc23)[C@@H]1c1ccc(NC(=O)OCCCCC)cc1"
targetentity = "SJSA-1"
endpointresult = 0.04

